Here, each record is paired with measured RA (relative affinity) data.
molecular target: T1, HLA-A*0201 molecule (human); assay: T2 cell HLA-A*0201 stabilisation, flow cytometry with BB7.2
T1 construct: MHC class I molecule on T2 cells, to which the test peptides are added from outside
Measured Attribute: RA (relative affinity)

binder="CLGLSYDGLL (Native peptide of MAGE-A1, -A2, -A3, -A4, -A6, -A12; It is named by the position of its first residue in MAGE-A1) [p174 (CLGLSYDGLL)]" result="41 ratio to reference peptide HIVpol 589"
binder="YLGLSYDGLL (Variant of p174 with tyrosine at P1) [p174Y1 (YLGLSYDGLL)]" result="13 ratio to reference peptide HIVpol 589"
